Test: Plasma protein binding assay (PPB), equilibrium dialysis, 10% FCS in PBS
Assay type: in vitro ADME
Conditions: bovine, read-out: PPB 10% FCS (% fu)
Method: Binding of test compounds to plasma was determined using equilibrium dialysis (ED) and quantitative mass spectrometry interfaced with liquid chromatography (LC-MS). […] After incubation, protein was precipitated from aliquots of each chamber and the concentration of test compound in the supernatant of the plasma-containing compartment (Cserum) and of the buffer-containing compartment (Cbuffer) was determined by LC-MS. […]
Field: label. Allowed values: t (fraction unbound < 0.1) or f (fraction unbound >= 0.1).

Previously resolved entries follow.
[ask] Below 0.1 on fraction unbound? Entry `C[C@H](Oc1cc(-n2ccc(C(=O)O)n2)nc(-c2noc3c2CCC[C@@]32CCCc3sc(N)c(C#N)c32)n1)[C@@H]1CCCN1C`
[reply] f

[ask] Below 0.1 on fraction unbound? Entry `C[C@H](Oc1cc([C@H]2CCNC2)nc(-c2noc3c2CCC[C@@]32CCCc3sc(N)c(C#N)c32)n1)[C@@H]1CCCN1C`
[reply] f

[ask] Below 0.1 on fraction unbound? Entry `C[C@H](Oc1cc(-c2cnn(C)c2)nc(-c2noc3c2CCC[C@@]32CCCc3sc(N)c(C#N)c32)n1)[C@@H]1CCCN1C`
[reply] f

Consider the additional molecule presented here.
[ask] Below 0.1 on fraction unbound? Entry `CO[C@@H]1C[C@@H]([C@H](C)Oc2cc(-n3ccnc3)nc(-c3noc4c3CCC[C@@]43CCCc4sc(N)c(C#N)c43)n2)N(C)C1`
[reply] f

---

test system: LOVO cells; assay: LOVO CTG proliferation assay (120 h) (CRC, G13D); assay type: cell-based; conditions: Homo sapiens, CTG 120 h
I'd appreciate it if you could supply log10 IC50 values for the items below.
Heads up, the numbers here are log10 of IC50 in nM units.

[ask] Note down log10 IC50 recorded for `C[C@H](Oc1nc(-c2noc3c2CCC[C@@]32CCCc3sc(N)c(C#N)c32)nc(N2CCNC3(CC3)C2)c1Cl)[C@@H]1C[C@@H](F)CN1C`
[reply] 2.35

Hello, I would appreciate it if you could give log10 IC50 for each entry below.
1. [2H]C([2H])([2H])N1C[C@H](F)C[C@H]1[C@H](C)Oc1cc(N2CCNC3(CC3)C2)nc(-c2noc3c2CCC[C@@]32CCCc3sc(N)c(C#N)c32)n1
2. CNC(=O)c1cn(-c2cc(O[C@@H](C)[C@@H]3CCCN3C)nc(-c3noc4c3CCC[C@@]43CCCc4sc(N)c(C#N)c43)n2)nn1
3. C[C@H](Oc1cc(Cl)nc(-c2onc3c2CCC[C@@]32CCCc3sc(N)c(C#N)c32)n1)[C@@H]1CCCN1C
4. C[C@H](Oc1cc(N2CCCC2=O)nc(-c2noc3c2CCC[C@@]32CCCc3sc(N)c(C#N)c32)n1)[C@@H]1CCCN1C
5. C[C@H]1CN(C)CCCN1c1cc(N2CC[C@H](N(C)C)C2)nc(-c2noc3c2CCC[C@@]32CCCc3sc(N)c(C#N)c32)n1

[reply]
1: 2.52; 2: 2.26; 3: 3.10; 4: 2.40; 5: 3.13

Hello, I would appreciate it if you could give log10 IC50 for each entry below.
1. C[C@H](Oc1cc(N2CCN(C)C3(COC3)C2)nc(-c2noc3c2CCC[C@@]32CCCc3sc(N)c(C#N)c32)n1)[C@@H]1CCCN1C
2. C[C@H](Oc1cc(-n2nccn2)nc(-c2onc3c2CCC[C@@]32CCCc3sc(N)c(C#N)c32)n1)[C@@H]1CCCN1C

[reply]
1. 1.79
2. 3.22

Hello, I would appreciate it if you could give log10 IC50 for each entry below.
1. CO[C@@H]1C[C@@H]([C@H](C)Oc2cc(-n3ccnc3)nc(-c3noc4c3CCC[C@@]43CCCc4sc(N)c(C#N)c43)n2)N(C)C1
2. C[C@H](Oc1cc(N2C[C@H](C)N[C@@H](C)C2)nc(-c2noc3c2CCC[C@@]32CCCc3sc(N)c(C#N)c32)n1)[C@@H]1CCCN1C
3. C[C@H](Oc1cc(N2CCN[C@@H](C)C2)nc(-c2noc3c2CCC[C@@]32CCCc3sc(N)c(C#N)c32)n1)[C@@H]1CCCN1C
4. C[C@@H]1CN(c2cc(O[C@@H](C)[C@@H]3C[C@@H](F)CN3C)nc(-c3noc4c3CCC[C@@]43CCCc4sc(N)c(C#N)c43)n2)CC2(CC2)N1

[reply]
2.05
2.82
2.60
2.27
